Assign self-aminoacylation to each entry below.
- Tested on: biotinyl-Phe-oxazolone
- Run Description: self-aminoacylation, catalytic enhancement (BFO) (fold over background); higher = more active; k-Seq, kA / k0A0; sequences stand for … in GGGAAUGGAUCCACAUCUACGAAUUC…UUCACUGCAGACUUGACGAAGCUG
Fewer inactive variants are shown than the library holds.
Field format: numeric only.

## Task # get_value(readout='self-aminoacylation', item= AUUAACUUGGUCAUCGAGUGA [Fam2.1 aminoacylation ribozyme variant] )
## Result 3.99

## Task Entry to check: AUUCACCUUGGUUAUCGGGUG [Fam2.2 aminoacylation ribozyme variant]
## Result 35.2

## Task Entry to check: CUACUUCAAACAAGCCGUCUG [Fam1A.1 aminoacylation ribozyme variant]
## Result 0.59

## Task Entry to check: CCGCAUUUCAAGCAAUCGGUC [Fam1B.1 aminoacylation ribozyme variant]
## Result 16.8

====

- Tested on: biotinyl-Leu-oxazolone
- Run Description: self-aminoacylation, catalytic enhancement (BLO) (fold over background); higher = more active; k-Seq, kA / k0A0; sequences stand for … in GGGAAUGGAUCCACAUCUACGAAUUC…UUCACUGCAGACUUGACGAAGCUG
Variants at the floor of the assay were thinned out.
Assign self-aminoacylation to each entry below.
Field format: numeric only.

## Task # get_value(readout='self-aminoacylation', item= AGGUUUGGUAAUAGUCGCAAG [Fam3.1 aminoacylation ribozyme variant] )
## Result 1.77

## Task Entry to check: AAGUUUGCAAAGAGUCGCAAG [Fam3.1 aminoacylation ribozyme variant]
## Result 0.949

## Task Entry to check: CCGCACUUCAAGUAAUCGGUC [Fam1B.1 aminoacylation ribozyme variant]
## Result 1.54

## Task Entry to check: CUACUUCAAACAAUCGGUGUA [Fam1A.1 aminoacylation ribozyme variant]
## Result 1.12

## Task Entry to check: CUACUCCAAACAAUCGGUCUG [Fam1A.1 aminoacylation ribozyme variant]
## Result 0.731

## Task Entry to check: AUCCACCUAGGUCAUCGGGUC [Fam2.2 aminoacylation ribozyme variant]
## Result 1.93

## Task Entry to check: CUACUUCAAAGAACCGGUCUG [Fam1A.1 aminoacylation ribozyme variant]
## Result 0.847

## Task Entry to check: CUACUUCAAACAGUCGGACUG [Fam1A.1 aminoacylation ribozyme variant]
## Result 0.564

## Task Entry to check: ACUACCCUGGGCAUCGAGUGA [Fam2.1 aminoacylation ribozyme variant]
## Result 7.95

## Task Entry to check: GUGCUUCAAACAAUCGGUCUG [Fam1A.1 aminoacylation ribozyme variant]
## Result 4.85

## Task Entry to check: AAGUUUGCUAAUAGAGGCAAG [Fam3.1 aminoacylation ribozyme variant]
## Result 0.554

## Task Entry to check: AUUCAGCUAGGGCAUCGGGUG [Fam2.2 aminoacylation ribozyme variant]
## Result 7.92

## Task Entry to check: AUUCACCUCGGUCAACGGGUG [Fam2.2 aminoacylation ribozyme variant]
## Result 5.39

## Task Entry to check: AUUCACGUAGGUCAUCCGGUG [Fam2.2 aminoacylation ribozyme variant]
## Result 17

## Task Entry to check: AUUCACUUAGGUCAUCGGGAG [Fam2.2 aminoacylation ribozyme variant]
## Result 1.22

## Task Entry to check: AAGUCUGCUAAUCGUCGCAAG [Fam3.1 aminoacylation ribozyme variant]
## Result 1.15

## Task Entry to check: CCACCCUUCAAGAAAUCGGUC [Fam1B.1 aminoacylation ribozyme variant]
## Result 1.26

## Task Entry to check: GUGACCCUGGUCAUCGAGUGA [Fam2.1 aminoacylation ribozyme variant]
## Result 19.6

## Task Entry to check: AUUGCCCUGGUCAACGAGUGA [Fam2.1 aminoacylation ribozyme variant]
## Result 6.71

## Task Entry to check: AUUCACCUAGCUCUUCGGGUG [Fam2.2 aminoacylation ribozyme variant]
## Result 2.62

## Task Entry to check: AUUACCCUGGUCAUCGAAUUA [Fam2.1 aminoacylation ribozyme variant]
## Result 0.955

## Task Entry to check: CCACCCUUCGAGCAAUCGGUC [Fam1B.1 aminoacylation ribozyme variant]
## Result 1.34

## Task Entry to check: CCACACGUCGAGCAAUCGGUC [Fam1B.1 aminoacylation ribozyme variant]
## Result 1.41

## Task Entry to check: AUGACCCUGGUCAGCGAGUGA [Fam2.1 aminoacylation ribozyme variant]
## Result 5.66

## Task Entry to check: AUUCAACUAAGUCAUCGGGUG [Fam2.2 aminoacylation ribozyme variant]
## Result 10.7

## Task Entry to check: AUUCACCCAGGUCAUCGGCUG [Fam2.2 aminoacylation ribozyme variant]
## Result 1.85

## Task Entry to check: CCACACUUCCAGCAACCGGUC [Fam1B.1 aminoacylation ribozyme variant]
## Result 0.925

## Task Entry to check: AUUCACCUAGAUCAUCUGGUG [Fam2.2 aminoacylation ribozyme variant]
## Result 2.82

## Task Entry to check: CCACACUUCAUGCAAGCGGUC [Fam1B.1 aminoacylation ribozyme variant]
## Result 1.01

## Task Entry to check: CCACACUUCAAGCUAUGGGUC [Fam1B.1 aminoacylation ribozyme variant]
## Result 0.763

## Task Entry to check: AUUACCCUGGUCAUGGAGUCA [Fam2.1 aminoacylation ribozyme variant]
## Result 0.838

## Task Entry to check: ACUACCCUGGUCAUCGAGCGA [Fam2.1 aminoacylation ribozyme variant]
## Result 1.95

## Task Entry to check: AUACACCUAGGUCAGCGGGUG [Fam2.2 aminoacylation ribozyme variant]
## Result 3.49

## Task Entry to check: AUUCACCUCGGUCAUCGGGUA [Fam2.2 aminoacylation ribozyme variant]
## Result 2.87

## Task Entry to check: CCACACUUCAAUCAAGCGGUC [Fam1B.1 aminoacylation ribozyme variant]
## Result 0.694

====

- Tested on: biotinyl-Phe-oxazolone
- Run Description: self-aminoacylation, catalytic enhancement (BFO) (fold over background); higher = more active; k-Seq, kA / k0A0; sequences stand for … in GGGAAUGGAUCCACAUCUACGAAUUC…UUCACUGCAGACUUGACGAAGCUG
This sample holds only a part of the variants without activity.
Criterion: self-aminoacylation meeting or surpassing 2. Met: yes. Not met: no.

## Task Quick check, self-aminoacylation >= 2? AUUCACCUAGGGCGUCGGGUG [Fam2.2 aminoacylation ribozyme variant]
## Result yes

## Task Entry to check: UCACACUUCAAGCAAUCGGAC [Fam1B.1 aminoacylation ribozyme variant]
## Result no

## Task Entry to check: AAGUUUGCCAAUAGUCGGAAG [Fam3.1 aminoacylation ribozyme variant]
## Result no

## Task Entry to check: CUACUUCAACCAAUCGGUCUC [Fam1A.1 aminoacylation ribozyme variant]
## Result yes

## Task Entry to check: AUUGCCCUGGUCAUCGAGGGA [Fam2.1 aminoacylation ribozyme variant]
## Result yes

## Task Entry to check: AAGUUUGCUAAUCGUCGCAUG [Fam3.1 aminoacylation ribozyme variant]
## Result no

## Task Entry to check: CUACCUCAAACAAUCGGUCUA [Fam1A.1 aminoacylation ribozyme variant]
## Result no

## Task Entry to check: CCACAUUUUAAGCAAUCGGUC [Fam1B.1 aminoacylation ribozyme variant]
## Result no

## Task Entry to check: UAGUUUGCUAAUAGUCACAAG [Fam3.1 aminoacylation ribozyme variant]
## Result yes

## Task Entry to check: AUCCACCUAGGUCAUCGGGUU [Fam2.2 aminoacylation ribozyme variant]
## Result yes

## Task Entry to check: CUACUUCAAACAAGCGGUUUG [Fam1A.1 aminoacylation ribozyme variant]
## Result no

## Task Entry to check: AUUGACCUAGGUCAUCGGGAG [Fam2.2 aminoacylation ribozyme variant]
## Result yes

## Task Entry to check: AUUCGCCUAGGUCAUCAGGUG [Fam2.2 aminoacylation ribozyme variant]
## Result yes

## Task Entry to check: CUUACACUGGUCAUCGAGUGA [Fam2.1 aminoacylation ribozyme variant]
## Result yes

## Task Entry to check: AUUACCCAUGUCAUCGAGUGA [Fam2.1 aminoacylation ribozyme variant]
## Result yes

## Task Entry to check: AAGUUUGUUAAUAUUCGCAAG [Fam3.1 aminoacylation ribozyme variant]
## Result no

## Task Entry to check: CCACACUUCAAGCAAUCGGUU [Fam1B.1 aminoacylation ribozyme variant]
## Result yes

## Task Entry to check: CCACUUCAAACAAUGGGUCUG [Fam1A.1 aminoacylation ribozyme variant]
## Result no

====

- Test system: biotinyl-Phe-oxazolone
- Run Description: self-aminoacylation, catalytic enhancement (BFO) (fold over background); higher = more active; k-Seq, kA / k0A0; sequences stand for … in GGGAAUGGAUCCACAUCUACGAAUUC…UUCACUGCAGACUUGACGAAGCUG
Variants at the floor of the assay were thinned out.
Assign self-aminoacylation to each entry below.
Field format: numeric only.

## Task # get_value(readout='self-aminoacylation', item= CCACUUCAAACAAUCAGUCUG [Fam1A.1 aminoacylation ribozyme variant] )
## Result 29.2

## Task Entry to check: CUACGUCAAAAAAUCGGUCUG [Fam1A.1 aminoacylation ribozyme variant]
## Result 5.5

## Task Entry to check: AUUACCCUGGUCAUCCCGUGA [Fam2.1 aminoacylation ribozyme variant]
## Result 43.3

## Task Entry to check: AUUCACCUAGCUCGUCGGGUG [Fam2.2 aminoacylation ribozyme variant]
## Result 4.07

## Task Entry to check: UCACACUUCAACCAAUCGGUC [Fam1B.1 aminoacylation ribozyme variant]
## Result 54.2

## Task Entry to check: GUUACCCUGGUCAUGGAGUGA [Fam2.1 aminoacylation ribozyme variant]
## Result 36.2

## Task Entry to check: CUACGUCAAACAUUCGGUCUG [Fam1A.1 aminoacylation ribozyme variant]
## Result 12.8

## Task Entry to check: CUCCUUCAAGCAAUCGGUCUG [Fam1A.1 aminoacylation ribozyme variant]
## Result 14.1

## Task Entry to check: CUACUUCAAACAAUAGGUCUU [Fam1A.1 aminoacylation ribozyme variant]
## Result 0.985

## Task Entry to check: CUACUACAAACAAUCGGUCUG [Fam1A.1 aminoacylation ribozyme variant]
## Result 1.24

## Task Entry to check: CGACUUCAAACAAUCUGUCUG [Fam1A.1 aminoacylation ribozyme variant]
## Result 3.02

## Task Entry to check: UUUCACGUAGGUCAUCGGGUG [Fam2.2 aminoacylation ribozyme variant]
## Result 32.2

## Task Entry to check: AUUCACCUAGGAAAUCGGGUG [Fam2.2 aminoacylation ribozyme variant]
## Result 53

## Task Entry to check: CGACACCUCAAGCAAUCGGUC [Fam1B.1 aminoacylation ribozyme variant]
## Result 1.16

## Task Entry to check: GUUACGCUGGUCAUCGAGUGA [Fam2.1 aminoacylation ribozyme variant]
## Result 59.2

## Task Entry to check: CUACUACAAACGAUCGGUCUG [Fam1A.1 aminoacylation ribozyme variant]
## Result 0.437

## Task Entry to check: AUGACCAUGGUCAUCGAGUGA [Fam2.1 aminoacylation ribozyme variant]
## Result 22.1

## Task Entry to check: AUUUCCCUGGCCAUCGAGUGA [Fam2.1 aminoacylation ribozyme variant]
## Result 11.7
